- Measured Target: T1, human GIP receptor (human, UniProt P48546 22-466)
- T1 sequence (looked up): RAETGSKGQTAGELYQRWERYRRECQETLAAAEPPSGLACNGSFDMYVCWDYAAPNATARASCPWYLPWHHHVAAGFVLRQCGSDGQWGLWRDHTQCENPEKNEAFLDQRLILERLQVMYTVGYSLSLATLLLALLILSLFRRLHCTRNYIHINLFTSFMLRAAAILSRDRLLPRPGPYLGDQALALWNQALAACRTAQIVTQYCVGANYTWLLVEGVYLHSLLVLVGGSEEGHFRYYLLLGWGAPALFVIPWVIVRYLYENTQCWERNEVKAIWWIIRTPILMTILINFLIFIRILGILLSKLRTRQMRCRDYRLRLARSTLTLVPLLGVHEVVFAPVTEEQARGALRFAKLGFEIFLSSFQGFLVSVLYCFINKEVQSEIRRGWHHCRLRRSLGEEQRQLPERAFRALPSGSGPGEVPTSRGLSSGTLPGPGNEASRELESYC
- Procedure Details: cell-based or functional assay
Bridge positions count the residues as written; N and C are the ends. Square brackets hold non-standard residues; d marks the D form. Ends that are not written are not given here. Aib = CC(C)(N)C(=O)O
Measure: In vitro activity compared with native peptide (%) vs GIP (cAMP EC50)
Report as a plain number; the unit % is understood.

Binder: H[Aib]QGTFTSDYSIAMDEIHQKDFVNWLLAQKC (bridge 16-20) [triple agonist of SEQ ID NO: 33]
Measurement Unit: %
Test Result: 10.4

Record H[Aib]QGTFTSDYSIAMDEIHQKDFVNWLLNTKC (bridge 16-20) [triple agonist of SEQ ID NO: 35] . Reported In vitro activity compared with native peptide (%) vs GIP (cAMP EC50): 1.3

Record H[Aib]QGTFTSDYSKYLDERACQDFVQWLLDQGGPSSGAPPPS [triple agonist of SEQ ID NO: 27] . Reported In vitro activity compared with native peptide (%) vs GIP (cAMP EC50): 0.9

Recorded values, source patent US20240293512A1.
